Measured values drawn from patent US20110237659A1 for this set.

# assayTarget: Human TRPV3 (Homo sapiens)
# Sequence (Q8NET8 whole entry): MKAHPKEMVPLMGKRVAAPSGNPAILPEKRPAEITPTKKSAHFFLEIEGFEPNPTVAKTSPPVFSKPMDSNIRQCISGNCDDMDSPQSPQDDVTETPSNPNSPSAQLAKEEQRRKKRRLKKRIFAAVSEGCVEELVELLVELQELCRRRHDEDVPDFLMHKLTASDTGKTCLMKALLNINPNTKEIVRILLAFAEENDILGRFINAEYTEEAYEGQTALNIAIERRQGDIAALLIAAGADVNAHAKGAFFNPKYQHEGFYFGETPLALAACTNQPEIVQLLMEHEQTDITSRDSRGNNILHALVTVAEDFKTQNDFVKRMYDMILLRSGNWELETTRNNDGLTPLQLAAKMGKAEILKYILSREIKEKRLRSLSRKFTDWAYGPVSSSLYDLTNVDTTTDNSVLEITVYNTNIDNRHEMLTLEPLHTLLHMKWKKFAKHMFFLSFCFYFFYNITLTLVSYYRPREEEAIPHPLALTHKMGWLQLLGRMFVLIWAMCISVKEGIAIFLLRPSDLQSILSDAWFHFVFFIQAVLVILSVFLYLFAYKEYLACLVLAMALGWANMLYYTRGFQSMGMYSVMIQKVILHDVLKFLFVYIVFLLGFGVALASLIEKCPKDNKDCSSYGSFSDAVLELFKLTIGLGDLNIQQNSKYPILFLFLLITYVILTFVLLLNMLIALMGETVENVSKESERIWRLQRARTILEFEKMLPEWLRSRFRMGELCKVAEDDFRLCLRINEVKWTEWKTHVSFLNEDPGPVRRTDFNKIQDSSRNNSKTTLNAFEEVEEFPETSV
# assay: 45Calcium uptake assay: inhibition of 2-APB induced cellular uptake of radioactive calcium in human TRPV3 expressing CHO cells
# runParameters: 2-APB 500 μM
Below: a set of entries, each annotated with reported IC50.

compound="COc1cccc(/C=C/c2oc3ccc(F)cc3c(=O)c2-c2ccc(C#N)cc2)c1OCC(C)(C)C [Example 20]" assaytarget="Human TRPV3 (Homo sapiens)" recordedmeasurement="< 50 nM"
compound="COc1cccc(/C=C/c2oc3ccccc3c(=O)c2-c2ccc(C#N)cc2)c1OCC1CC1 [Example 3]" assaytarget="Human TRPV3 (Homo sapiens)" recordedmeasurement="150 to 1000 nM"
compound="COc1cccc(/C=C/c2oc3ccccc3c(=O)c2-c2ccc(C#N)cc2)c1OCCC(F)(F)F [Example 9]" assaytarget="Human TRPV3 (Homo sapiens)" recordedmeasurement="50 to 150 nM"
compound="COc1cccc(/C=C/c2oc3cc(F)ccc3c(=O)c2-c2ccc(C#N)cc2)c1OCCC(F)(F)F [Example 14]" assaytarget="Human TRPV3 (Homo sapiens)" recordedmeasurement="150 to 1000 nM"
compound="COc1cccc(/C=C/c2oc3ccc(Cl)cc3c(=O)c2-c2ccc(C#N)cc2)c1OCC1CC1 [Example 21]" assaytarget="Human TRPV3 (Homo sapiens)" recordedmeasurement="150 to 1000 nM"
compound="COc1cccc(/C=C/c2oc3cc(F)ccc3c(=O)c2-c2ccc(C#N)cc2)c1OCC1CC1 [Example 10]" assaytarget="Human TRPV3 (Homo sapiens)" recordedmeasurement="150 to 1000 nM"
compound="COc1cccc(/C=C/c2oc3cc(F)ccc3c(=O)c2-c2ccc(C#N)cc2)c1OCC(C)C [Example 13]" assaytarget="Human TRPV3 (Homo sapiens)" recordedmeasurement="50 to 150 nM"
compound="COc1cccc(/C=C/c2oc3ccccc3c(=O)c2-c2ccc(C#N)cc2)c1OC1CCCC1 [Example 5]" assaytarget="Human TRPV3 (Homo sapiens)" recordedmeasurement="150 to 1000 nM"

Query: I have this compound here, COc1cccc(/C=C/c2oc3cc(F)ccc3c(=O)c2-c2ccc(C#N)cc2)c1OC1CCCC1 [Example 11] , and I need its recorded IC50.
Result: 50 to 150 nM

Query: Tell me the measured IC50 of COc1cccc(/C=C/c2oc3ccc(F)cc3c(=O)c2-c2ccc(C#N)cc2)c1OCC1CCC1 [Example 17] , please.
Result: 150 to 1000 nM

Query: Value lookup for IC50; key = N#Cc1ccc(-c2c(/C=C/c3cccc(OC(F)F)c3OCC3CC3)oc3ccccc3c2=O)cc1 [Example 4]
Result: 150 to 1000 nM

Query: Need IC50, item COc1cccc(/C=C/c2oc3ccccc3c(=O)c2-c2ccc(C#N)cc2)c1OCC(C)C [Example 8]
Result: 50 to 150 nM

Query: Reported IC50, compound COc1cccc(/C=C/c2oc3cc(F)c(F)cc3c(=O)c2-c2ccc(C#N)cc2)c1OC1CCCC1 [Example 23] : ____
Result: < 50 nM

Query: Requested read-out: IC50. Entry: COc1cccc(/C=C/c2oc3cc(F)ccc3c(=O)c2-c2ccc(C#N)cc2)c1OCC(C)(C)C [Example 12]
Result: < 50 nM
